Test system: Cystic fibrosis transmembrane conductance regulator (Homo sapiens), P13569 [F508del]
Sequence (P13569 as listed by the source): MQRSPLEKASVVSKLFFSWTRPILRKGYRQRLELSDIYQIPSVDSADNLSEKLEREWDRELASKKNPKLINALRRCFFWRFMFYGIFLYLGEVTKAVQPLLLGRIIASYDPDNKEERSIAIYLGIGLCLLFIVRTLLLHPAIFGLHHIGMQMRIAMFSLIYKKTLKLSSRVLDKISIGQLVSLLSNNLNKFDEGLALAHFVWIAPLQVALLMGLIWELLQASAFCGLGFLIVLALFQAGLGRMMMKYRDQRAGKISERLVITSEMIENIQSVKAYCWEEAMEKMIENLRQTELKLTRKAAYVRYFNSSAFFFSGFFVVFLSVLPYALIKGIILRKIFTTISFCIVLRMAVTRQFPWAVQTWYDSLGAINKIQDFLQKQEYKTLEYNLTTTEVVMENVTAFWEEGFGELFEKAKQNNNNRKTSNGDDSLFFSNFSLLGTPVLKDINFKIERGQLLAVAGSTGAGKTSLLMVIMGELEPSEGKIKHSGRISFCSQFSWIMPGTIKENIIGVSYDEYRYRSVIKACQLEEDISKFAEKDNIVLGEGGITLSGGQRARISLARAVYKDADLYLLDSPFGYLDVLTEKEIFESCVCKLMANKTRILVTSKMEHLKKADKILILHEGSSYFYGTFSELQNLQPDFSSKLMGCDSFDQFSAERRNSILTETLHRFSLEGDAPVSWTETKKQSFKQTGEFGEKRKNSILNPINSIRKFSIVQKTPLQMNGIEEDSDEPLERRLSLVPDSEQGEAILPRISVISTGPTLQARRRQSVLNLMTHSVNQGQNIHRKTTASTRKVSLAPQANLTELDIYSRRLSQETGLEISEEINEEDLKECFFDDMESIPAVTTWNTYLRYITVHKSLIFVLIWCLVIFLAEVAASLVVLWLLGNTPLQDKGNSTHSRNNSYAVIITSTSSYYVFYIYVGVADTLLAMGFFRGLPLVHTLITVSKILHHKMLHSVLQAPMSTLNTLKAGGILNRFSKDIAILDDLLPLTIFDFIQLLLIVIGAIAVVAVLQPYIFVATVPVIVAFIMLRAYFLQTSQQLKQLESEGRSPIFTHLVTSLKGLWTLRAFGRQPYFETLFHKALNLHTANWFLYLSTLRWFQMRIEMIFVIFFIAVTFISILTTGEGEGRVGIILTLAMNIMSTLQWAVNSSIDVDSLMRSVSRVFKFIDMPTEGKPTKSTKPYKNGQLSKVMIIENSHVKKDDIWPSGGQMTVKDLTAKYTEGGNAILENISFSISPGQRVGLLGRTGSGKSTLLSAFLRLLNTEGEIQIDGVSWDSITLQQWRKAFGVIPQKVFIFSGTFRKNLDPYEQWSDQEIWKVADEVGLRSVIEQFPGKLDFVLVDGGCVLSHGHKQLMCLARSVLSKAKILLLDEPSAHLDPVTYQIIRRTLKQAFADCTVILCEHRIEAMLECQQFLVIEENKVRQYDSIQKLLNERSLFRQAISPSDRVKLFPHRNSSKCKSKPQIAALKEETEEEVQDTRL
assay_protocol: Corrector activity at human CFTR F508 deletion mutant expressed in human A549 cells incubated for 25 mins by YFP-based fluorescence analysis
Assay type: cell-based
The source made the active and inactive calls. The rule behind the calls is not given here.
endpoint: Emax

Example entries and their recorded answers appear below.
molecule | reading
NC(=O)C1CCN(c2nc(-c3ccccn3)nc3c2CN(Cc2ccccc2)CC3)CC1 | 34.4%
CCN(C(C)=O)C1CCN(c2nc(-c3ccccn3)nc3c2CN(Cc2ccc(OC)cc2)CC3)C1 (centres undefined) | inactive
COc1ccc(CN2CCc3nc(-c4ccccn4)nc(NCCCn4ccnc4)c3C2)cc1 | inactive
CN1CCN(CCCNc2nc(-c3cccnc3)nc3c2CN(Cc2ccccc2)CC3)CC1 | inactive
CN1CCN(CCCNc2nc(-c3ccccn3)nc3c2CN(Cc2ccccc2)CC3)CC1 | inactive

Task: Name the recorded Emax for COc1ccc(CN2CCc3nc(-c4ccccn4)nc(N4CCN(CCN(C)C)CC4)c3C2)cc1 .
Result: inactive

Task: Request: NC(=O)CN1CCN(c2nc(-c3ccccn3)nc3c2CN(Cc2ccccc2)CC3)CC1
Result: inactive

Task: Request: CN(C)CCN1CCN(c2nc(-c3ccccn3)nc3c2CN(Cc2ccsc2)CC3)CC1
Result: inactive

Task: Request: OC1CCCN(c2nc(-c3ccccn3)nc3c2CN(Cc2ccccc2)CC3)C1 (centres undefined)
Result: 30.6%
